These data points were gathered from the kinase profiling compilation of Christmann-Franck et al. (2016).

Listed here: items and their measured kinase still bound, per cent of control.
# TARGET_OR_SYSTEM: NEK9 (human) (UniProt Q8TD19)
# Sequence (Q8TD19 whole entry, looked up): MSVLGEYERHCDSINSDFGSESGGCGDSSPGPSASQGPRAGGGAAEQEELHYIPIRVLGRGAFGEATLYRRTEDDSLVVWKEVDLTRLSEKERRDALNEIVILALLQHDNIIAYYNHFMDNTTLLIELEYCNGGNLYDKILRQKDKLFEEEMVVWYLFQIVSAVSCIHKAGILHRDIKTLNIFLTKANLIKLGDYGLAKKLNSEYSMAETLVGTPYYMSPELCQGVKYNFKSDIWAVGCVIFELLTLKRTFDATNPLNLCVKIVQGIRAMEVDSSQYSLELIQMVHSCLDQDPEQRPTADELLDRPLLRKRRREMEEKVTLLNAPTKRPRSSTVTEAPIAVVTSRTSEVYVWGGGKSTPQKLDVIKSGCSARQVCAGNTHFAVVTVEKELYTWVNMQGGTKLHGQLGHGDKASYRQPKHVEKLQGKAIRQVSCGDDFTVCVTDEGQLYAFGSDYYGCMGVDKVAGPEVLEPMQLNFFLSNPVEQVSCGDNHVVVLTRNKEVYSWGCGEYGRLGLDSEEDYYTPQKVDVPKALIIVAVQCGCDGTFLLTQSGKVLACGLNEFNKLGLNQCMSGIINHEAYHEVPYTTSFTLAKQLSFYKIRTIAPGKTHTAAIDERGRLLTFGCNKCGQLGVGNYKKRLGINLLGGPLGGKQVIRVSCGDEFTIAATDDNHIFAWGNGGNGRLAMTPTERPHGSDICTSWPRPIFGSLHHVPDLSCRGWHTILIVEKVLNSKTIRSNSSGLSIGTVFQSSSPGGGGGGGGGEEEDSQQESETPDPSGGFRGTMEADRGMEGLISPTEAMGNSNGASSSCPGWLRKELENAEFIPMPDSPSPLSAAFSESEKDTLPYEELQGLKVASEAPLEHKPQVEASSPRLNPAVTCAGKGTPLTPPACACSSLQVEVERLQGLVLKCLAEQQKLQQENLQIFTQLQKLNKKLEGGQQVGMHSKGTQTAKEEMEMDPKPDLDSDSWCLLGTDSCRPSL
# PROTOCOL_DESCRIPTION: KINOMEscan competition binding
# CONDITIONS_USED: compound 10.0 µM
Field: numeric (%). Do not append units.

Examples with their reported kinase still bound, per cent of control follow.
{"SMILES_DATA": "O=C1NC(=O)/C(=C/c2ccc3nccc(-c4ccncc4)c3c2)S1", "TARGET_OR_SYSTEM": "NEK9 (human) (UniProt Q8TD19)", "kinase still bound, per cent of control [%]": 95}
{"SMILES_DATA": "CNC(=O)c1ccc(Nc2cc(Nc3ccccc3S(=O)(=O)C(C)C)c3cc[nH]c3n2)nc1", "TARGET_OR_SYSTEM": "NEK9 (human) (UniProt Q8TD19)", "kinase still bound, per cent of control [%]": 100}
{"SMILES_DATA": "COCC(=O)NC/C=C/c1ccc2ncnc(Nc3ccc(Oc4ccc(C)nc4)c(C)c3)c2c1", "TARGET_OR_SYSTEM": "NEK9 (human) (UniProt Q8TD19)", "kinase still bound, per cent of control [%]": 82}

Proceed to the following item.
Prompt: NEK9 (human) (UniProt Q8TD19) / kinase still bound, per cent of control / COc1cc(C(=O)N2CCC(N3CCN(C)CC3)CC2)ccc1Nc1ncc2c(n1)N(C)c1ccccc1C(=O)N2C : value?
Response: 100
